Entry source: paper PMC4714923

So I've got a bunch of binders here, and I need their pKd values.
- subject-of-test: Hop R77A (human, UniProt P31948 1-543, R77A)
- assay-remarks: fluorescence polarisation
pKd: −log10 of the molar value. Where no end group is shown, it is not given here. 5‑Fam = 5-carboxyfluorescein; Ahx = NCCCCCC(=O)O

- binder: "{5‑Fam-Ahx}-GSGPTIEEVD [Hsp72 C-terminal tracer (Fam-GSGPTIEEVD)]"
  pKd: "< 4.60"

Proceed to the following item.
Query :: What value of pKd has been recorded for this entry: {5‑Fam-Ahx}-SSGPTIEEVD [Hsc70 C-terminal tracer (Fam-SSGPTIEEVD)]
Result :: < 4.60
